Recorded measurements of pKd, one per entry
Molecular target: T1, PUF4 RNA-binding domain (Saccharomyces cerevisiae, UniProt P25339 537-888)
T1 sequence: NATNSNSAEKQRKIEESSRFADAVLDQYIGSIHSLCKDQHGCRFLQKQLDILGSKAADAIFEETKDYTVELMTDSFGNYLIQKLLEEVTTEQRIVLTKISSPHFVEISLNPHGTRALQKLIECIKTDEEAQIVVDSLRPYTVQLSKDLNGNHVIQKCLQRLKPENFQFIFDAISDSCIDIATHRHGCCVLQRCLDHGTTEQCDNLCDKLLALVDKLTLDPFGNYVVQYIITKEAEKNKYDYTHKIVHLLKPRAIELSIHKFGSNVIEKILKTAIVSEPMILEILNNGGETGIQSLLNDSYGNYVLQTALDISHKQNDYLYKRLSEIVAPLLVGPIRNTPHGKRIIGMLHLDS
Experiment: Mg; RNA-MaP; 20 mM Na-HEPES pH 7.4, 30 mM KOAc, 0.75 mM MgCl2, 0.1% Tween-20, 5% glycerol, 0.1 mg/mL BSA, 2 mM DTT; 25 C; 0.0125-409.6 nM protein
Conditions: tags: N-His6-TEV cleaved; C-SNAP kept, Cy3B-labelled; label: tethered on chip by stalled RNA polymerase
# pKd is unitless: minus log10 of the molar concentration; print number only

UCUCUUGCACACUUAUUAACUCUCUU (ssRNA) [Id_ii_S1_P5E.4_K5.3_C5.2_[C-2G]_[T-1C]_H5.3_A5.1_F5.1_T5.2_[T11A]_[A12C]] : 5.72
UCUCUUUGUAUCCAAUCUCUU (ssRNA) [Ic_S1_P4E.1_K4.1_C4.1_H4.1_A4.1_[A6C]_[T7C]_F4.1_[T8A]_T4.1] : 5.98
Id_ii_S2_P3E.3_K3.2_C3.2_H3.2_A3.1_F3.1_T3.2_[T9A]_[A10C] (ssRNA) RNA: UUUGAUUAAUAUGAUAUCGUUCUUUCUCUUAUAUAUAACUUCUUUCUCGAUAUCAUAUUAAUCUUU : 6.95
Id_ii_S2_P5E.4_K5.3_C5.2_[C-2G]_[T-1C]_H5.3_A5.1_F5.1_T5.2_[T11A]_[A12C] (ssRNA) RNA: UUUGAUUAAUAUGAUAUCGUUCUUUCUGCACACUUAUUAACUUCUUUCUCGAUAUCAUAUUAAUCUUU : 6.35
Ic_S2_P3E.1_K3.1_C3.1_H3.1_A3.1_[A6C]_F3.1_[A8C]_T3.1 (ssRNA) RNA: UUUGAUUAAUAUGAUAUCGUUCUUUCUUGUAUCUCUUCUUUCUCGAUAUCAUAUUAAUCUUU : 7.81
ACAAACGAUAUAUUAUUAGGACAAAC (ssRNA) [Id_ii_S3_P5E.3_K5.2_C5.2_[C-2G]_[T-1A]_H5.2_A5.1_F5.1_T5.2_[T11G]_[A12G]] : 6.79
UCUCUUUGUAUACGGCUCUCUU (ssRNA) [Ic_S1_P5E.1_K5.1_C5.1_H5.1_A5.1_[T6A]_[A7C]_F5.1_[T8G]_[T9G]_[A10C]_T5.1] : 6.34
UCUCUUGCACACUUAUUAAUUCUCUU (ssRNA) [Id_ii_S1_P5E.4_K5.3_C5.2_[C-2G]_[T-1C]_H5.3_A5.1_F5.1_T5.2_[T11A]_[A12T]] : 5.86
UCUCUUUGUACGAUGUCUCUU (ssRNA) [Ic_S1_P4E.1_K4.1_C4.1_H4.1_A4.1_[T5C]_[A6G]_[T7A]_F4.1_[A9G]_T4.1] : 7.62
Ic_S2_P4E.1_K4.1_C4.1_H4.1_A4.1_[T5C]_[A6T]_[T7C]_F4.1_[T8C]_[A9C]_T4.1 (ssRNA) RNA: UUUGAUUAAUAUGAUAUCGUUCUUUCUUGUACUCCCUUCUUUCUCGAUAUCAUAUUAAUCUUU : 6.62

Any idea what pKd was measured for UCUCUUAUACACUAUUAACUCUCUU (ssRNA) [Id_ii_S1_P4E.4_K4.3_C4.2_[C-2A]_H4.3_A4.1_F4.1_T4.2_[G10A]_[T11C]] ? 7.43

Moving on to the next binder: Ib_S2_P4E.1_K4.1_C4.1_H4.1_A4.1_[A6C]_[T7G]_F4.1_T4.1 (ssRNA) RNA: UUUGAUUAAUAUGAUAUCGUUCUUUCUUGUAUCGUAUUCUUUCUCGAUAUCAUAUUAAUCUUU 8.07

Then what about the binder Id_ii_S2_P4E.3_K4.2_C4.2_[C-2A]_[T-1C]_H4.2_A4.1_F4.1_T4.2_[G10C]_[T11C] (ssRNA) RNA: UUUGAUUAAUAUGAUAUCGUUCUUUCUACUAUAUAUUACCUUCUUUCUCGAUAUCAUAUUAAUCUUU ? 8.05

Try this binder next: UCUCUUUGUAAAUUUCUCUU (ssRNA) [Ic_S1_P3E.1_K3.1_C3.1_H3.1_A3.1_[T5A]_F3.1_[A8T]_T3.1] 7.77

Note, next up: UCUCUUUCAACACUAUAUAUCUCUU (ssRNA) [Id_iii_S1_P3E.7_K3.3_C3.3_[T-1A]_H3.3_A3.1_F3.1_T3.2] 5.77

Now consider Ie_S2_P5E.1_K5.1_C5.1_H5.1_[+1CCC]_A5.1_F5.1_T5.1 (ssRNA) RNA: UUUGAUUAAUAUGAUAUCGUUCUUUCUUCCCGUAUUAUUAUUCUUUCUCGAUAUCAUAUUAAUCUUU and answer again. 6.75

Request: UCUCUUUGUACCUAUUUCUCUU (ssRNA) [Ic_S1_P5E.1_K5.1_C5.1_H5.1_A5.1_[T5C]_[T6C]_[A7T]_F5.1_[T8A]_[A10T]_T5.1] 7.31
